- System: Trypanosoma brucei rhodesiense
- Assay Method Text: Trypanocidal activity against pentamidine and melarsoprol-resistant Trypanosoma brucei rhodesiense K 243-As-10-3 assessed as inhibition of trypanosomes after 48 hrs
- Type: functional, organism-based
- Experimental Setup: K 243-As-10-3, 48 h
Measured Quantity: pIC50
Value format note: pIC50 is -log10 of concentration (mol/L); just state the number.

Lookup: Which pIC50 value belongs to NCCCN(CCCCN(CCCN)C1c2ccccc2CCc2ccccc21)C1c2ccccc2CCc2ccccc21 ?
Found: 4.66

Lookup: Which pIC50 value belongs to NCCCCN(CCCN)C1c2ccccc2CCc2ccccc21 ?
Found: 5.08

----------
- Test system: Trypanosoma brucei brucei
- Assay Method Text: Trypanocidal activity against drug-sensitive Trypanosoma brucei brucei Lab 110 EATRO assessed as inhibition of trypanosomes after 48 hrs
- Format: functional, organism-based
Could you please mark true for values of IC50 below 2000 nM and false for values at or above it?

Solved entries (count: 4):
compound_structure_string=NCCCN(CCCCN(CCCN)C1c2ccccc2CCc2ccccc21)C1c2ccccc2CCc2ccccc21 class_assignment=false
compound_structure_string=NCCN(CCN)C1c2ccccc2CCc2ccccc21 class_assignment=false
compound_structure_string=NCCCCN(CCCN)C1c2ccccc2CCc2ccccc21 class_assignment=true
compound_structure_string=CN(C)CCCNC1c2ccccc2CCc2ccccc21 class_assignment=true

--- query ---
Lookup: Identify whether the compound CN(C)CCNC1c2ccccc2CCc2ccccc21 records IC50 below 2000 nM.
Found: true
